# Test system: HCC-2998 colon
# test_description: NCI tumour cell line growth inhibition, 48 h
Where a SMILES comes first, the peptide text is derived from it. [ ]: non-standard residue; d: D form. The star is where a group is joined. ξ: configuration not given here. Cbz = O=C(OCc1ccccc1)*; ξK = NCCCCC(N)C(=O)O
Tag: true if measured TGI is not below 5 µM, false if it is.

Known results for molecules:
Incoming: Identify whether the reported TGI of the following molecule is 5 µM or greater: CC(C)(C)c1[nH]nc2c1C(c1cc3ccccc3[nH]c1=O)Nc1cc(C(=O)Nc3ccc(Cl)cc3)ccc1N2 (centres undefined)
Outgoing: true

Incoming: Could you please find out whether `Cc1ncc(CCl)c2c1OC(C)(C)OC2` has TGI that meets 5 µM or exceeds it?
Outgoing: true

Incoming: Hello, I need to know if NCCCCC(NC(=O)OCc1ccccc1)C(=O)NCC(N)=O (centres undefined) (Cbz-[ξK]-Gly-NH2) has measured TGI not below 5 µM. Thanks!
Outgoing: true

Incoming: Quick check: does `Cc1cc2c(c(C(N)=O)c1C)-c1cccc(Cl)c1C2=O` have TGI greater than or equal to 5 µM?
Outgoing: true

Incoming: Check if TGI >= 5 µM (inclusive). Item: `COc1cc(Nc2cc(C)nc(N3CCN(c4ccnc5cc(Cl)ccc45)CC3)n2)cc(OC)c1`
Outgoing: false

Incoming: Hi, just wondering whether `CCC[CH2][Sn]([CH2]CCC)([O]C(=O)Cc1ccc(F)cc1)[O]C(=O)Cc1ccc(F)cc1` shows TGI of 5 µM or higher.
Outgoing: false

Incoming: Is TGI for CC(C)(Cl)C(Cl)CC/C(CBr)=C(\Cl)CCl (centres undefined) at or above 5 µM?
Outgoing: true

Incoming: # bool: TGI of COc1cc2c(cc1OC)C1C(O)C(OC)C(Br)C3(Br)CCN(C2)C13 (centres undefined) >= 5 µM
Outgoing: true

Incoming: TGI >= 5 µM for COc1ccc(C23c4ccc(OC)cc4CC2(c2ccc([N+](=O)[O-])cc2)Cc2cc(OC)ccc23)cc1 (centres undefined) ?
Outgoing: true

Incoming: Reported TGI at or above 5 µM? COc1ccc2c(c1)N(CCO)C1=C(C(=O)OC1)C2c1cc(OC)c(OC)c(OC)c1 (centres undefined)
Outgoing: true

Further cases:
Incoming: Determine whether measured TGI meets or exceeds 5 µM for COc1cccc2c1C(=O)c1c(O)c3c(c(O)c1C2=O)CC(O)(C(O)CO)CC3OC1CC2C(OC3COCC(C#N)N32)C(C)O1 (centres undefined)
Outgoing: false

Incoming: Decide: TGI of `C[C@H](CCC(=O)NN)[C@H]1CC[C@H]2[C@@H]3CC[C@@H]4C[C@H](O)CC[C@]4(C)[C@H]3CC[C@]12C` >= 5 µM?
Outgoing: true

Incoming: Hi, just wondering whether `CN(C)c1ccc2nc3ccc(=N)cc-3sc2c1` shows TGI of 5 µM or higher.
Outgoing: true

Incoming: Record O=C1OCC2=C1C(c1cccc(F)c1)c1cc3c(cc1N2CCO)CCC3 (centres undefined) ; criterion: TGI no lower than 5 µM. Met?
Outgoing: true

Incoming: Hi team, for `CC/C(CC(=O)CCC(=O)Nc1c(C)cccc1C)=N\NC(=O)NN` , is the recorded TGI at or above 5 µM?
Outgoing: true

Incoming: Tell me whether TGI is at least 5 µM here: `O=C1c2cccc3cc4ccccc4c(c23)C(=O)N1CCNCCNCCNCCN1C(=O)c2cccc3cc4ccccc4c(c23)C1=O`
Outgoing: false

Incoming: I'd appreciate it if you could say whether `Cn1c(=O)c2ccccc2c2nc3ccccc3nc21` has TGI at least equal to 5 µM.
Outgoing: true

Incoming: In plain terms: is recorded TGI at least 5 µM for COc1ccc(C(OCC2OC(n3cnc4c(=O)n(Cc5ccccc5[N+](=O)[O-])nnc43)C(O)C2O)(c2ccccc2)c2ccc(OC)cc2)cc1 (centres undefined) ?
Outgoing: true

Incoming: Is TGI for `CCCCC1=C(Br)C(=C(Br)Br)OC1=O` at or above 5 µM?
Outgoing: true
